This collection of values is drawn from PubChem BioAssay AID449739.

assay.target: Voltage-dependent T-type calcium channel subunit alpha-1H (Homo sapiens) (UniProt O95180)
Sequence (O95180 whole entry, looked up): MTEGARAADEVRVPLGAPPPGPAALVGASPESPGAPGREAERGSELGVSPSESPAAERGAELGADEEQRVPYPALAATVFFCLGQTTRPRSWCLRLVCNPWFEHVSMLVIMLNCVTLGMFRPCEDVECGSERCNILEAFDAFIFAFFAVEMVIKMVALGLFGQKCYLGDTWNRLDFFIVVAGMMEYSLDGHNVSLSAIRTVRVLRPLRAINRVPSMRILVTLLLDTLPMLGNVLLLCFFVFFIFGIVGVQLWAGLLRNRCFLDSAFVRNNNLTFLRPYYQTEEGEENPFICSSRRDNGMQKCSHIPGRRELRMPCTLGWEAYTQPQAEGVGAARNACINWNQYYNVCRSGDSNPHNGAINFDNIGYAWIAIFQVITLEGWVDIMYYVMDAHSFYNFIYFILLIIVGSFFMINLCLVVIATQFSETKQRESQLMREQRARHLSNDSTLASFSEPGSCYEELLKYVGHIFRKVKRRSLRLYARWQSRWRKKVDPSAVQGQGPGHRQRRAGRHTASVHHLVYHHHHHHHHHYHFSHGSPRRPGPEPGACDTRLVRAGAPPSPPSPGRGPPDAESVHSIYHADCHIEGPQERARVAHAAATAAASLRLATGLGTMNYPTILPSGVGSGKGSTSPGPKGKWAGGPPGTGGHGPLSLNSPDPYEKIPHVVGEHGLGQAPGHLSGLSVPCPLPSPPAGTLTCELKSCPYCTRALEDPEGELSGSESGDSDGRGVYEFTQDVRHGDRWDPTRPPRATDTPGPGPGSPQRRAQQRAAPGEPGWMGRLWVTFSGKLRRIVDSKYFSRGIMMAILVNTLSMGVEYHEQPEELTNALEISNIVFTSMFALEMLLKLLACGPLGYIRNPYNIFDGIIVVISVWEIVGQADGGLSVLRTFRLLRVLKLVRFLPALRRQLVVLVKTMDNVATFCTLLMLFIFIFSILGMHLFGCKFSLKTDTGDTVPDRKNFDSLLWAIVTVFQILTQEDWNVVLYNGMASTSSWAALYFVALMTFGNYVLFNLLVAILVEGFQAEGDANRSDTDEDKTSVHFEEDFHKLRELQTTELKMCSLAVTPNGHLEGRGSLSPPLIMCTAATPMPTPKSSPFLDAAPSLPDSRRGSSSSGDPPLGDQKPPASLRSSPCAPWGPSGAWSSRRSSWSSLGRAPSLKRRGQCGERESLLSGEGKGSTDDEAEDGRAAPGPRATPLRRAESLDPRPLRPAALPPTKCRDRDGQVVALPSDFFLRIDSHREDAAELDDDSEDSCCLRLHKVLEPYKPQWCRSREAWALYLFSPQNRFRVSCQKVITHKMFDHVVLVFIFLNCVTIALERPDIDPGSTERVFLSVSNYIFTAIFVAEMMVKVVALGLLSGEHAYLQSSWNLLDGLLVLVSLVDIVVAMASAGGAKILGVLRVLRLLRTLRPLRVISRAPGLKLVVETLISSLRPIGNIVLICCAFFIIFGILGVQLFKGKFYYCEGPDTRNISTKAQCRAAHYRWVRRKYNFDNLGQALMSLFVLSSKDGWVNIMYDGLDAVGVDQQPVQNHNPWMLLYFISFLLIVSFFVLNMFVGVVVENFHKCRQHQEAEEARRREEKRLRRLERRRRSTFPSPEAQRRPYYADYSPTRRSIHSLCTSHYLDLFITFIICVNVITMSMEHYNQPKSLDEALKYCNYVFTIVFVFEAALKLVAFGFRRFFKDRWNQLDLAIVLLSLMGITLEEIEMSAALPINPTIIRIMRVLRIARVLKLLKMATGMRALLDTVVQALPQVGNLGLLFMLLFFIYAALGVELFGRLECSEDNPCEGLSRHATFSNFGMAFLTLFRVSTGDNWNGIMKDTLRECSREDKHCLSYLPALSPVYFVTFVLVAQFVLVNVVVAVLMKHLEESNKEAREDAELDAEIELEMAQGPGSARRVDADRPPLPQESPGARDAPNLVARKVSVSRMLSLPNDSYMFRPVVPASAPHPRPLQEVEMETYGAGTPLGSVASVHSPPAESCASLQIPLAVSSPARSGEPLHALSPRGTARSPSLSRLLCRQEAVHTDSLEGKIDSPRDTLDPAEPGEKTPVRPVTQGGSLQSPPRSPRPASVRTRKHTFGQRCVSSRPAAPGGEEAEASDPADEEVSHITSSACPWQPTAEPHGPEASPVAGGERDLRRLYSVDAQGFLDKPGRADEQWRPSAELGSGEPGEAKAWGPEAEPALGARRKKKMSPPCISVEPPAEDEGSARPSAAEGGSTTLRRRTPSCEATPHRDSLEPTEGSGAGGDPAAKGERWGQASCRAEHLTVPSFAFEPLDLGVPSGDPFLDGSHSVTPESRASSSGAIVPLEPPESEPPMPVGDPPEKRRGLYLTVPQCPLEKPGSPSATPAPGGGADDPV
assay.method.text: Cav3.2 calcium influx blockers – cell-based, Fluo-4 calcium fluorescence, FDSS, MLSMR library, primary screen (AID 449739)
study.conditions: Cav3.2-expressing cells, at 10 µM, stronger effect = lower value
The campaign covered roughly 100,000 compounds. About 4,200 (4.2%) were called active. The list comes from a sample in which actives are over-represented; it also holds close analogues and randomly drawn compounds.
reported.endpoint: B-score
Give bare numbers.

Before answering, review these 4 worked examples.
- compound: "CCOc1ccc(-c2nnn(CC(=O)N3CCN(c4ccc(F)cc4)CC3)n2)cc1OCC"
  B-score: 0.122
- compound: "Cc1cc(C)c2nc(NC(=O)c3ccc4c(c3)OCO4)sc2c1"
  B-score: 0.981
- compound: "C/C=C(/C)C(=O)O[C@@H]1c2cc3c(c4c2[C@@]2(CO4)C(=O)C(OC)=C(OC)C=C2C[C@@H](C)[C@H]1C)OCO3"
  B-score: -0.0512
- compound: "CC(C)(C)CN1C(=O)C(=O)NC[C@H]1Cc1cccc2ccccc12"
  B-score: 0.844

Request: Supply reported B-score belonging to this compound: COC(=O)C1(O)CC(C(C)C)=NN1C(=O)c1ccc(Cl)cc1 (stereo not given)
Response: -0.542
